Recorded values, source patent US20250129430A1.

Tested on: KATO3
Experiment: Cell viability drug screen, 12-point dose-response AUC
Format: cell-based, human
Details: KATO3 cells; 72 hours; 12-point dose-response
Procedure: An FDA-approved small-molecule pharmacological compound (#L1300) and an anticancer compound for research (#L2000) were purchased from Selecckchem and a 10 mM solution was prepared in DMSO. […] Cells cultured for cell-based drug assay were inoculated into a 96-well white optical plate (Corning) at 5×10^3 cells per well. […] The final drug concentration in the 5 ns range and the DMSO specification control (0.5%) were calculated. […]
Counter-ions that a name gives are not always drawn.
readout-type: area under the viability curve (AUC), normalized
Answer using only a numeral; do not append any unit.

Q. Consider the molecule shown here: Cc1ccc(C(=O)N(CCCN)[C@@H](c2oc3cc(Cl)ccc3c(=O)c2Cc2ccccc2)C(C)C)cc1 What is its recorded area under the viability curve (AUC), normalized?
A. 3.189

Q. Would you mind telling me what area under the viability curve (AUC), normalized value was observed for O=C1c2c(O)ccc(O)c2C(=O)c2c(NCCNCCO)ccc(NCCNCCO)c21 [Mitoxantrone Hydrochloride] ?
A. 4.807

Q. Any idea what area under the viability curve (AUC), normalized was measured for CCCCc1nc2cc(/C=C/C(=O)NO)ccc2n1CCN(CC)CC ?
A. 0.2173

Q. Bench note: what area under the viability curve (AUC), normalized did Nc1ccc(-c2ccc3ncc4ccc(=O)n(-c5cccc(C(F)(F)F)c5)c4c3c2)cn1 show?
A. 2.66

Q. Would you kindly share the measured area under the viability curve (AUC), normalized for C#Cc1cccc(Nc2ncnc3cc(OC)c(OCCCCCCC(=O)NO)cc23)c1 ?
A. 0.683

Q. area under the viability curve (AUC), normalized lookup needed for CCCOc1ccc2nc(NC(=O)OC)[nH]c2c1 , thanks.
A. 3.472
